B1: glmS ribozyme (parent)
chain: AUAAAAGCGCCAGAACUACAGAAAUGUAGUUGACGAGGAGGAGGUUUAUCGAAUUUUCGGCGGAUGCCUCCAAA

variants of: B1; experiment: self-cleavage kobs at 160 uM GlcN6P; higher = faster cleavage; RNA array; conditions: with glucosamine-6-phosphate
This sample holds only a part of the variants without activity.
QUANTITY_KIND: self-cleavage kobs at 160 uM GlcN6P

stdin: // self-cleavage kobs at 160 uM GlcN6P lookup, key: G37C A42C
stdout: < 1e-05 s⁻¹
